Experimental Target: T1, human myostatin (mature, recombinant; R&D Systems) (human, UniProt O14793 267-375)
T1 construct: biotinylated in the mRNA display selection; also called GDF-8; mature myostatin
T1 sequence: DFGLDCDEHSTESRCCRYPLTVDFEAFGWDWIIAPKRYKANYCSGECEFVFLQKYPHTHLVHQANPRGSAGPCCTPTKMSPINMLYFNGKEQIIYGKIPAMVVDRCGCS
Test Name: competitive HTRF, alanine scan
Measured Quantity: IC50 (nM)
All answers are understood in nM, so give the number only.

Please review the following examples before continuing.
1. 3116_A06 V80A (designed binder) MGVSDVPRDLEVVAATPTSLLISWSLPHQGKANYYRITYGETGGNSPVQEFTVPGRGVTATISGLKPGVDYTITVYAVTATDTGYLKYKPISINYRTEIDKPSQHHHHHH : 4
2. 3116_A06 V58A (designed binder) MGVSDVPRDLEVVAATPTSLLISWSLPHQGKANYYRITYGETGGNSPVQEFTVPGRGATATISGLKPGVDYTITVYAVTVTDTGYLKYKPISINYRTEIDKPSQHHHHHH : 1.6

Please turn your attention to the following entry.
Name the recorded IC50 for 3116_A06 Y85A (designed binder) MGVSDVPRDLEVVAATPTSLLISWSLPHQGKANYYRITYGETGGNSPVQEFTVPGRGVTATISGLKPGVDYTITVYAVTVTDTGALKYKPISINYRTEIDKPSQHHHHHH . 2

Origin of values: patent US20170088602A1
